System: Aspergillus fumigatus
Assay remarks: Antifungal activity against Aspergillus fumigatus MTCC 2550 after 72 hrs by serial dilution technique
Threshold check on -logMIC: strictly below 1 is 1 (yes); on or above 1 is 0 (no).

>>> print(df.to_string())
                                   compound  class_assignment
0  Cc1ccc(C23Sc4cc(Br)ccc4N=C2c2ccccc2C3=O)cc1 (configuration not stated)           1 (yes)
1  COc1ccc2c(c1)SC1(c3ccc(Cl)cc3)C(=O)c3ccccc3C1=N2 (configuration not stated)            0 (no)
2  Cc1ccc(C23Sc4cc(C)ccc4N=C2c2ccccc2C3=O)cc1 (configuration not stated)           1 (yes)
3  O=C1c2ccccc2C2=Nc3ccccc3SC12c1ccccc1 (configuration not stated)            0 (no)
4  O=C1c2ccccc2C2=Nc3ccc(Br)cc3SC12c1ccccc1 (configuration not stated)            0 (no)

We now examine a further compound.
Task item: Check if -logMIC falls below 1 for COc1ccc2c(c1)SC1(c3ccc(C)cc3)C(=O)c3ccccc3C1=N2 (configuration not stated) .
Reply: 0 (no)

====

System: Bacillus subtilis
Assay remarks: Antibacterial activity against Bacillus subtilis MTCC 441 after 24 hrs by serial dilution technique
Assay type: functional
Measured parameter: -logMIC
Respond with the number and no other words.

Example entries begin here.
                                   compound     assayed_target  quantitative_result
0  O=C1c2ccccc2C2=Nc3ccccc3SC12c1ccc(Cl)cc1 (configuration not stated)  Bacillus subtilis                 1.46
1  Cc1ccc(C23Sc4cc(C)ccc4N=C2c2ccccc2C3=O)cc1 (configuration not stated)  Bacillus subtilis                 0.85
2  Cc1ccc2c(c1)SC1(c3ccccc3)C(=O)c3ccccc3C1=N2 (configuration not stated)  Bacillus subtilis                 0.83

# compound Cc1ccc2c(c1)SC1(c3ccc(Cl)cc3)C(=O)c3ccccc3C1=N2 (configuration not stated) ; its -logMIC = 1.18

According to the records, this compound COc1ccc(C23Sc4cc(C)ccc4N=C2c2ccccc2C3=O)cc1 (configuration not stated) displays -logMIC of 1.47

Per the record, Cc1ccc(C23Sc4ccccc4N=C2c2ccccc2C3=O)cc1 (configuration not stated) has -logMIC of 1.14

Value of measured -logMIC for the entry O=C1c2ccccc2C2=Nc3ccc(Br)cc3SC12c1ccccc1 (configuration not stated) : 1.21

====

System: Aspergillus fumigatus
Assay remarks: Antifungal activity against Aspergillus fumigatus MTCC 2550 after 72 hrs by serial dilution technique
Assign labels as follows, please: yes (1) for -logMIC below 1; no (0) for -logMIC equal to or exceeding 1.

Example entries begin here.
In [3]: df
Out[3]:
                                   compound         assayed_target  class_assignment
0  Cc1ccc2c(c1)SC1(c3ccc(Cl)cc3)C(=O)c3ccccc3C1=N2 (stereo unspecified)  Aspergillus fumigatus           yes (1)
1  COc1ccc(C23Sc4cc(Br)ccc4N=C2c2ccccc2C3=O)cc1 (stereo unspecified)  Aspergillus fumigatus            no (0)
2  COc1ccc(C23Sc4cc(OC)ccc4N=C2c2ccccc2C3=O)cc1 (stereo unspecified)  Aspergillus fumigatus            no (0)
3  COc1ccc(C23Sc4cc(C)ccc4N=C2c2ccccc2C3=O)cc1 (stereo unspecified)  Aspergillus fumigatus           yes (1)
4  O=C1c2ccccc2C2=Nc3ccc(Br)cc3SC12c1ccc(Cl)cc1 (stereo unspecified)  Aspergillus fumigatus            no (0)

In the following, a different compound is considered.
Task item: Find out if reported -logMIC for Cc1ccc2c(c1)SC1(c3ccccc3)C(=O)c3ccccc3C1=N2 (stereo unspecified) is less than 1
Reply: no (0)
